// provenance: patent US20250092010A1

procedure_text: Pharmacokinetic assays after oral gavage administration to rats
Type: in vivo, male SD rats
condition_details: plasma, active metabolite; oral gavage, male SD rats, suspension in 0.5% CMC-Na
Description: Instruments: ultra high performance liquid chromatography (Acquity UPLC, Waters) system; triple quadrupole mass spectrometer (Qtrap 5500, Sciex); high-speed refrigerated centrifuge (5430R, Eppendorf). […] Plasma drug concentration Data and Calculation of Pharmacokinetic Parameters: Plasma drug concentration data was processed using MultiQuan 3.0 (Sciex), and pharmacokinetic parameters were calculated using DAS 2.0 software. Plasma drug concentrations were measured in ug/L.
readout_label: AUC(0-t) (µg·h/L)
Express your answer in µg·h/L, writing the number without its unit.

Note to self: AUC(0-t) recorded for CCC(CC)COC(=O)Nc1cccc2c1CN(C1CCC(=O)NC1=O)C2=O (stereo not shown) was 1568

Note to self: AUC(0-t) recorded for Cc1oc(=O)oc1COC(=O)Nc1cccc2c1CN(C1CCC(=O)NC1=O)C2=O (stereo not shown) was 5217

Note to self: AUC(0-t) recorded for CCCCCCCCOC(=O)Nc1cccc2c1CN(C1CCC(=O)NC1=O)C2=O (stereo not shown) was 503.2

Note to self: AUC(0-t) recorded for CCCCCCCCCCCCCCCCCCOC(=O)Nc1cccc2c1CN(C1CCC(=O)NC1=O)C2=O (stereo not shown) was 402.5

Note to self: AUC(0-t) recorded for CCCCCCOC(=O)Nc1cccc2c1CN(C1CCC(=O)NC1=O)C2=O (stereo not shown) was 1022

Note to self: AUC(0-t) recorded for CCCCCCCCCCCOC(=O)Nc1cccc2c1CN(C1CCC(=O)NC1=O)C2=O (stereo not shown) was 489.4

Note to self: AUC(0-t) recorded for CC(C)OC(=O)Nc1cccc2c1CN(C1CCC(=O)NC1=O)C2=O (stereo not shown) was 3822

* * *

procedure_text: Pharmacokinetic assays after oral gavage administration to rats
Assay type: in vivo, male SD rats
condition_details: plasma, active metabolite; oral gavage, male SD rats
readout_label: MRT(0-∞)
Report field: quantity (unit follows the number).

Note to self: MRT(0-∞) recorded for CCCCCCCCOC(=O)Nc1cccc2c1CN(C1CCC(=O)NC1=O)C2=O (stereo not shown) was 3.8 ± 0.8 h

Note to self: MRT(0-∞) recorded for CCCCCCCCCCCCCCCCCCOC(=O)Nc1cccc2c1CN(C1CCC(=O)NC1=O)C2=O (stereo not shown) was 3.6 ± 0.7 h

Note to self: MRT(0-∞) recorded for CC(C)OC(=O)Nc1cccc2c1CN(C1CCC(=O)NC1=O)C2=O (stereo not shown) was 4.6 ± 0.6 h

Note to self: MRT(0-∞) recorded for CCCCCCOC(=O)Nc1cccc2c1CN(C1CCC(=O)NC1=O)C2=O (stereo not shown) was 1.1 ± 0.6 h

Note to self: MRT(0-∞) recorded for Cc1oc(=O)oc1COC(=O)Nc1cccc2c1CN(C1CCC(=O)NC1=O)C2=O (stereo not shown) was 8.7 ± 0.6 h

Note to self: MRT(0-∞) recorded for CCCCCCCCCCCOC(=O)Nc1cccc2c1CN(C1CCC(=O)NC1=O)C2=O (stereo not shown) was 3.9 ± 0.5 h

Note to self: MRT(0-∞) recorded for CCC(CC)COC(=O)Nc1cccc2c1CN(C1CCC(=O)NC1=O)C2=O (stereo not shown) was 5.2 ± 0.7 h

* * *

procedure_text: Pharmacokinetic assays after oral gavage administration to rats
Type: in vivo, male SD rats
condition_details: plasma, active metabolite; oral gavage, male SD rats
Task for the reader: assign each of the following compounds its reported VRT(0-∞).
Express your answer in h^2, writing the number without its unit.

Note to self: VRT(0-∞) recorded for CCCCCCCCOC(=O)Nc1cccc2c1CN(C1CCC(=O)NC1=O)C2=O (stereo not shown) was 10.5

Note to self: VRT(0-∞) recorded for CC(C)OC(=O)Nc1cccc2c1CN(C1CCC(=O)NC1=O)C2=O (stereo not shown) was 14.3

Note to self: VRT(0-∞) recorded for CCCCCCCCCCCCCCCCCCOC(=O)Nc1cccc2c1CN(C1CCC(=O)NC1=O)C2=O (stereo not shown) was 10.2

Note to self: VRT(0-∞) recorded for Cc1oc(=O)oc1COC(=O)Nc1cccc2c1CN(C1CCC(=O)NC1=O)C2=O (stereo not shown) was 21.8

Note to self: VRT(0-∞) recorded for CCC(CC)COC(=O)Nc1cccc2c1CN(C1CCC(=O)NC1=O)C2=O (stereo not shown) was 14.2

Note to self: VRT(0-∞) recorded for CCCCCCCCCCCOC(=O)Nc1cccc2c1CN(C1CCC(=O)NC1=O)C2=O (stereo not shown) was 9.9

* * *

Task for the reader: assign each of the following molecules its reported AUC(0-∞).
procedure_text: Pharmacokinetic assays after oral gavage administration to rats
Assay type: in vivo, male SD rats
Parameters: concentration or dose not given beside the values
condition_details: plasma, active metabolite; oral gavage, male SD rats
Express your answer in µg·h/L, writing the number without its unit.

Note to self: AUC(0-∞) recorded for Cc1oc(=O)oc1COC(=O)Nc1cccc2c1CN(C1CCC(=O)NC1=O)C2=O (stereo not shown) [Compound 6] was 5229.3

Note to self: AUC(0-∞) recorded for CCCCCCCCOC(=O)Nc1cccc2c1CN(C1CCC(=O)NC1=O)C2=O (stereo not shown) [Compound 7] was 584.3

Note to self: AUC(0-∞) recorded for CCC(CC)COC(=O)Nc1cccc2c1CN(C1CCC(=O)NC1=O)C2=O (stereo not shown) [Compound 10] was 1765

Note to self: AUC(0-∞) recorded for CCCCCCCCCCCCCCCCCCOC(=O)Nc1cccc2c1CN(C1CCC(=O)NC1=O)C2=O (stereo not shown) [Compound 9] was 456

* * *

procedure_text: Pharmacokinetic assays after oral gavage administration to rats
Assay type: in vivo, male SD rats
condition_details: plasma, active metabolite; oral gavage, male SD rats
Task for the reader: assign each of the following compounds its reported VRT(0-t).
Report field: quantity (unit follows the number).

Note to self: VRT(0-t) recorded for CCCCCCOC(=O)Nc1cccc2c1CN(C1CCC(=O)NC1=O)C2=O (stereo not shown) [Compound 5] was 11 ± 1.8 h^2

Note to self: VRT(0-t) recorded for CC(C)OC(=O)Nc1cccc2c1CN(C1CCC(=O)NC1=O)C2=O (stereo not shown) [Compound 1] was 13 ± 2.2 h^2

Note to self: VRT(0-t) recorded for CCCCCCCCOC(=O)Nc1cccc2c1CN(C1CCC(=O)NC1=O)C2=O (stereo not shown) [Compound 7] was 10 ± 1.3 h^2

Note to self: VRT(0-t) recorded for CCC(CC)COC(=O)Nc1cccc2c1CN(C1CCC(=O)NC1=O)C2=O (stereo not shown) [Compound 10] was 14 ± 2.1 h^2

Note to self: VRT(0-t) recorded for Cc1oc(=O)oc1COC(=O)Nc1cccc2c1CN(C1CCC(=O)NC1=O)C2=O (stereo not shown) [Compound 6] was 20 ± 2.5 h^2

Note to self: VRT(0-t) recorded for CCCCCCCCCCCCCCCCCCOC(=O)Nc1cccc2c1CN(C1CCC(=O)NC1=O)C2=O (stereo not shown) [Compound 9] was 10 ± 1.5 h^2

Note to self: VRT(0-t) recorded for CCCCCCCCCCCOC(=O)Nc1cccc2c1CN(C1CCC(=O)NC1=O)C2=O (stereo not shown) [Compound 8] was 9.8 ± 1.5 h^2

* * *

procedure_text: Pharmacokinetic assays after oral gavage administration to rats
Assay type: in vivo, male SD rats
Set-up: unit not given here
condition_details: plasma, active metabolite; oral gavage, male SD rats
Decide using AUMC(0-t): a value greater than or equal to 10000 is yes (1), a smaller one is no (0).

**Q:** Does CCCCCCOC(=O)Nc1cccc2c1CN(C1CCC(=O)NC1=O)C2=O (stereo not shown) have a reported AUMC(0-t) of at least 10000?
**A:** no (0)

**Q:** Does CCCCCCCCCCCOC(=O)Nc1cccc2c1CN(C1CCC(=O)NC1=O)C2=O (stereo not shown) have a reported AUMC(0-t) of at least 10000?
**A:** no (0)

**Q:** Does CCCCCCCCCCCCCCCCCCOC(=O)Nc1cccc2c1CN(C1CCC(=O)NC1=O)C2=O (stereo not shown) have a reported AUMC(0-t) of at least 10000?
**A:** no (0)

**Q:** Does CCC(CC)COC(=O)Nc1cccc2c1CN(C1CCC(=O)NC1=O)C2=O (stereo not shown) have a reported AUMC(0-t) of at least 10000?
**A:** yes (1)

**Q:** Does CCCCCCCCOC(=O)Nc1cccc2c1CN(C1CCC(=O)NC1=O)C2=O (stereo not shown) have a reported AUMC(0-t) of at least 10000?
**A:** no (0)

**Q:** Does Cc1oc(=O)oc1COC(=O)Nc1cccc2c1CN(C1CCC(=O)NC1=O)C2=O (stereo not shown) have a reported AUMC(0-t) of at least 10000?
**A:** yes (1)

**Q:** Does CC(C)OC(=O)Nc1cccc2c1CN(C1CCC(=O)NC1=O)C2=O (stereo not shown) have a reported AUMC(0-t) of at least 10000?
**A:** yes (1)
